- assayProcedure: Tissue concentration of aprepitant by HPLC after oral or inhaled administration to rabbits
- Type: in vivo, New Zealand albino rabbits
- experimentalSetup: New Zealand White, rabbit, lung, left superior lobe, inhaled, 0.4 mg/kg/day, Lung concentration of aprepitant LSPI (left superior lobe), Group 8, inhalation (aerosol, olive oil) 0.4 mg/kg per day, seven days; individual cases
observable: concentration at 7 days (ng/g)

> print(dat)
                                   compound  measurementunits  resultnumber
1  C[C@@H](OC1OCCN(Cc2nc(=O)[nH][nH]2)C1c1ccc(F)cc1)c1cc(C(F)(F)F)cc(C(F)(F)F)c1 (stereo in doubt) [Aprepitant]              ng/g          9900
